Every entry's value here was drawn from ChEMBL document CHEMBL3784932.

experiment: Cytotoxicity against human ARH77 cells after 72 hrs by MTS assay; type: functional, cell-based; details: ARH-77, 72 h
Attribute Measured: pIC50
Hey, just a heads up that pIC50 is the negative log base 10 of the concentration in molar.

Consider the worked cases shown below.
CC(C)C[C@H](NC(=O)[C@H](Cc1ccccc1)NC(=O)c1cnccn1)B(O)O: 8.22
COCCC(=O)N[C@@H](Cc1ccccc1)C(=O)N[C@@H](CC(C)C)B(O)O: 8.04
CC(C)C[C@H](NC(=O)[C@H](Cc1ccccc1)NC(=O)CC(C)(C)C)B(O)O: 8.08
CCCC(=O)N[C@@H](Cc1ccccc1)C(=O)N[C@@H](CC(C)C)B(O)O: 8.10
CC(C)C[C@H](NC(=O)[C@H](Cc1ccccc1)NC(=O)C1CCCC1)B(O)O: 8.41

# get_value(readout='pIC50', item= COCC(=O)N[C@@H](Cc1ccccc1)C(=O)N[C@@H](CC(C)C)B(O)O )
8.24
